Hello, the source for this data is the supplement of paper PMC10065799, in case you need it.

Test system: c-Src
Assay: phosphorylation enrichment, bacterial display (enrichment ratio); higher = better substrate or ligand; peptides without Tyr show the background
Threshold check on phosphorylation enrichment: at or above 0.5 gives True, strictly below gives False.

Study these solved cases before continuing.
entry.sequence	discrete.label
RETLTYAQAQR [BRD1_Y33]	True
IGNGYYFRVFS [MYBPC3_Y1136]	False
IRTIDYRYTVS [IDS_Y497_W502S]	False
KGPNVCKKTVN [REV3L_Y1156_Y1156C]	True
NWGKKYPTCNS [PTPRZ1_Y53]	False

Input: phosphorylation enrichment >= 0.5 for REESTYLPLTS [ICAM3_Y527] ?
Output: True

Input: Is phosphorylation enrichment at least 0.5? Consider KRLDGYVLEGR [IGSF9_Y656]
Output: False

Input: # check: phosphorylation enrichment of VFPIDYYFPPQ [AR_Y552_L548F] is greater than or equal to 0.5
Output: True

Input: Entry PEVRRYVLPLN [RPE65_Y368] : is its phosphorylation enrichment no less than 0.5?
Output: True

Input: Please tell me: is the sequence KTDKKYLMIKE [BAG3_Y451_E455K] at or over 0.5 in terms of phosphorylation enrichment?
Output: False

---

Biological target: SHP2-C SH2
Test: SH2 binding enrichment of the phosphorylated peptide, bacterial display (enrichment ratio); higher = better substrate or ligand; peptides without Tyr show the background
recorded.endpoint: SH2 binding enrichment
Please give the numeric answer without any surrounding text.

Input: Recorded SH2 binding enrichment of MFNPMYALFRT [HUWE1_Y4078] , please.
Output: 1.1

Input: Given PRRRFYVVACD [RNASE3_Y134_G130R] , state its recorded SH2 binding enrichment.
Output: 0.486

Input: What value of measured SH2 binding enrichment is listed for MDQAEYQAKIQ [DHX58_Y518_R523Q] ?
Output: 0.424

Input: Which SH2 binding enrichment value belongs to EFKKHYGFSLF [ANXA3_Y295_YF] ?
Output: 0.749

Input: Need SH2 binding enrichment, item GAVGHYVLAER [HFE_Y342_M339V]
Output: 0.851

---

Biological target: c-Src SH2
Experiment: SH2 binding enrichment of the phosphorylated peptide, bacterial display (enrichment ratio); higher = better substrate or ligand; peptides without Tyr show the background
Criterion: SH2 binding enrichment meeting or surpassing 0.7. Met: true. Not met: false.

Please review the following examples before continuing.
entry.sequence	tgt	discrete.label
IYRASYVPFAA [RBM47_Y541_G538R]	c-Src SH2	false
GGFNNYGFGND [HNRNPH3_Y159_YF]	c-Src SH2	false
IKETHYMVDRC	c-Src SH2	false
LARDMDDKEYY [MET_Y1230_Y1230D]	c-Src SH2	true

Consider the record given below.
Input: State whether the measured SH2 binding enrichment reaches 0.7, counting equality as reaching it, for PRDSGYSYETI [MAP1B_Y1921_S1917R]
Output: true

---

Target: FGFR1 (UniProt P11362)
Sequence (P11362 whole entry, looked up): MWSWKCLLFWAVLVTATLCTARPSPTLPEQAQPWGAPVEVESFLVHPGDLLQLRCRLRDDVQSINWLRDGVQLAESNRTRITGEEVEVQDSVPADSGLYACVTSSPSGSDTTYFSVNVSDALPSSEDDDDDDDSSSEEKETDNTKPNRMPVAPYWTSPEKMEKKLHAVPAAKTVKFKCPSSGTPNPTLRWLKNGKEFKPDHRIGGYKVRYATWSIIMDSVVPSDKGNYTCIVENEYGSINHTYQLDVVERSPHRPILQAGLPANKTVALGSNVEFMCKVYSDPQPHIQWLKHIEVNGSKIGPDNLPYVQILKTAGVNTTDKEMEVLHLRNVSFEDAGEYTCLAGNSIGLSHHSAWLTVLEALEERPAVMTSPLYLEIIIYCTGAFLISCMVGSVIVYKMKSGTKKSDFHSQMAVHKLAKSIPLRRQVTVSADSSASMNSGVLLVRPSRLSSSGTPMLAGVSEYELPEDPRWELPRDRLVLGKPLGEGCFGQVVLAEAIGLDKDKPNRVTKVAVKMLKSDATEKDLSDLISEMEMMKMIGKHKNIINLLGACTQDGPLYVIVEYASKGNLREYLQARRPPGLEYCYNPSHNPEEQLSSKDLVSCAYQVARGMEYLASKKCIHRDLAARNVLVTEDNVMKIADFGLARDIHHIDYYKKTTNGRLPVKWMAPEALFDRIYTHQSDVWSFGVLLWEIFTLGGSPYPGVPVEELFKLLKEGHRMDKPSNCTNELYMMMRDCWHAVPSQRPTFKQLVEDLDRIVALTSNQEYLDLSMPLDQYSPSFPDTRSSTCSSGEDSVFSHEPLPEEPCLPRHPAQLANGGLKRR
Assay: phosphorylation enrichment, bacterial display (enrichment ratio); higher = better substrate or ligand; peptides without Tyr show the background
We begin with a simple list: items and their reported phosphorylation enrichment.
Keep the answer to the number alone.

Illustrative cases are given below, each with its answer.
entry.sequence	recorded.endpoint	measured.result
AKIDGYITSYR	phosphorylation enrichment	0.469
LEDDMYRKTCT [XPA_Y257]	phosphorylation enrichment	1.24
ATDLAYYLVRE [ASL_Y375_K380E]	phosphorylation enrichment	8.49
LLREWYLQDPF [SIX3_Y225_YF]	phosphorylation enrichment	0.941
QSHKVYVQHLL [POR_Y604]	phosphorylation enrichment	0.867
FHNSEYGELSE [FLT4_Y1337_Y1333H]	phosphorylation enrichment	0.569

Input: Enter reported phosphorylation enrichment observed with FGFR1 (UniProt P11362) for IGERTYGQVYK [CDK13_Y716_G714R]
Output: 0.381

Input: Reported phosphorylation enrichment for FGFR1 (UniProt P11362), given GEVLVYAEDPA [FLNA_Y319_V320A] ?
Output: 0.496

Input: Entry APGDAYGDAGF [SYP_Y250_YF] , system FGFR1 (UniProt P11362): what phosphorylation enrichment was measured?
Output: 0.484
